Parameter: CAR+ (gate frequency). Scope: all listed entries.
- system_tested: anti-BCMA CAR
- measurement_notes: flow cytometry; clonal supernatant on anti-BCMA CAR T cells, FITC goat anti-rabbit F(ab')2 detection

binder	CAR+ (gate frequency)
Clone 137-2 (antibody, V domains shown) VH: QEQLVESGGGLVQPEGSLTLTCTASGFSFSLSNWICWVRQAPGKGLEWVACIYVSVSGNTRYASWAKGRFTISETSSTTVTLQMTGLTAADTATYFCARDPFSLVSVDRSLWGPGTLVTVSS VL: ALVMTQTPSPVSAAVGGTVTINCQASQSIGSDLSWFQQKPGQPPKLLMYWASSLASGVPSRFKGSGSGTQFTLTISDLECDDAATYYCAGYVNYNNDDAAFGGGTEVVVK	42.4
Clone 80-7 (antibody, V domains shown) VH: QEQLEESGGDLVKPEGSLTLTCTASGFSFSSAYWICWVRQVPGKGLEWIACIYTGSGGRSHYASWAKGRFTISKTSSTTVTLQMTSLTAADTATYFCARDPYILSAGPDNVLWGPGTLVTVSS VL: ALVMTQTPSPVSAAVGGTVTINCQASQSIGSDLGWFQQKPGQPPKLLIYWASTLASGVPSRFEGSGSGTQFTLTISDLECDDAATYYCAGYESLSNDGNAFGGGTEVVVK	31.5

Numbers sourced from patent US20200377609A1.
